Data provenance is patent US20150093336A1.

measurement-target: T1, Recombinant human MMR (R&D systems) (human, UniProt P22897 19-1383)
T1 construct: Antigen of the PE-ELISA and the SPR; also called hMMR; recombinant hMMR
T1 sequence: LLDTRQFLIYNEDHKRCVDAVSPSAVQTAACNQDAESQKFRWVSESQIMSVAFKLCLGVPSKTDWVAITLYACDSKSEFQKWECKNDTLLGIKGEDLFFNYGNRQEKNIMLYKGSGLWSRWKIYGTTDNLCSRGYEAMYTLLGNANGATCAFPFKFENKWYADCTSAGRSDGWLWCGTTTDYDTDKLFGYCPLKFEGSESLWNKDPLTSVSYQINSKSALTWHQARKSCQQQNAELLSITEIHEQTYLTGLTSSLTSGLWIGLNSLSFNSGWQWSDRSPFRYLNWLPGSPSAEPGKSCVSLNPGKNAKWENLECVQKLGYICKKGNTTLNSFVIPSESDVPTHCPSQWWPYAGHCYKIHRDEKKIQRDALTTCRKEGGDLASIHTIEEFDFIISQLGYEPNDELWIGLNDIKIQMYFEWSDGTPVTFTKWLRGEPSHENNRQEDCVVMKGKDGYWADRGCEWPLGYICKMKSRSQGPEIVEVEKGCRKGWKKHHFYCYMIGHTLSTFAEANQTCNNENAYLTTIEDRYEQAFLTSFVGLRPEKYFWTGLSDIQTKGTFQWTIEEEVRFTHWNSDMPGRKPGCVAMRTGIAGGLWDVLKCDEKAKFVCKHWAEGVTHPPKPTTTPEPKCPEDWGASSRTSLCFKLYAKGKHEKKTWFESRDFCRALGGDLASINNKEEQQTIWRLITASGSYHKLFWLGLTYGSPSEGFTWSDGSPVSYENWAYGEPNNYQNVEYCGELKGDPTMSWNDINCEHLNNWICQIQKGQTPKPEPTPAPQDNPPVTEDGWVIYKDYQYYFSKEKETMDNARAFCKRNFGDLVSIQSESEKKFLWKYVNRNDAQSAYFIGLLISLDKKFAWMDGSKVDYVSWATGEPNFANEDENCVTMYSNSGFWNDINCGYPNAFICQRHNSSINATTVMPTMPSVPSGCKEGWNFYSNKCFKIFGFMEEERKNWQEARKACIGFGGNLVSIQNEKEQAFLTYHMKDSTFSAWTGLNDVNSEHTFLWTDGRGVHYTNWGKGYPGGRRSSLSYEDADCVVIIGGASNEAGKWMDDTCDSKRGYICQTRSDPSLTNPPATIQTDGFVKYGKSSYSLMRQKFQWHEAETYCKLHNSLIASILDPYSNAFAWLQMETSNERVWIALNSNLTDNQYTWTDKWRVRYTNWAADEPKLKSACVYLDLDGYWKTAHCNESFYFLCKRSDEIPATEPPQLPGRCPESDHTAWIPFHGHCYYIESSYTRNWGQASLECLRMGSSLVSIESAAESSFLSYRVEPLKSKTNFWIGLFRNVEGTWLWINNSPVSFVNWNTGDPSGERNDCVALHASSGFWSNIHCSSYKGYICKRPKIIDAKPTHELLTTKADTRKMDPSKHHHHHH
procedure-details: SPR, BIAcore T100; human MMR on CM5 chip, sdAb as analyte
This section presents binders with their documented kon values.
Output spec: scalar in M⁻¹ s⁻¹, unitless text.

Worked cases, answers included:
NbhmMMRm14.93 (VHH, Produced from pMECS with C-terminal HA and 6xHis tag) VHH: QVQLQESGGGLVQAGDSLRLSCAASGRTFSINYMGWYRQAPGKQRELVAAITSGSGSTNYADSVKGRFTISRDNAKKTMYLQMNSLKPEDTAVYYCNADMDSSLSGGYVDVWGQGTQVTVSS; 95000
NbhmMMRm15.49 (VHH, Produced from pMECS with C-terminal HA and 6xHis tag) VHH: QVQLQESGGGLVQAGGSLRLSCAASGSTFSINNMGWYRQAPGKQRELVAGITGGNTHYADSVKGRFTISRDNAKNTMYLQMNSLKPEDTAVYYCNANWGAYWGQGTQVTVSS; 21000
NbhmMMRm21.22 (VHH, Produced from pMECS with C-terminal HA and 6xHis tag; also called NbhMMRm21.22) VHH: QVQLQESGGGLVQAGGSLRLSCAASGRTFSSAAMGWFRQAPGKEREPVALINLDDGETYYADIAKGRFTLSKDNAKNSVYLQMNSLKPEDTAVYYCAVRGRFDDNYEYWGQGTQVTVSS; 340000

// next entry
I have this binder here, NbhmMMRm22.84 (VHH, Produced from pMECS with C-terminal HA and 6xHis tag) VHH: QVQLQESGGGLVQPGGSLRLSCAASGRTFSNYVNYAMGWFRQFPGKEREFVASISWSSVTTYYADSVKGRFTISRDNAKNTVYLQMNSLKPEDTAVYYCAAHLAQYSDYAYRDPHQFGAWGQGTQVTVSS , and I need its recorded kon.
49000
